Cited source: paper PMC10104807

Molecular target: NLuc-TTBK2 (Homo sapiens, UniProt Q6IQ55)
Construct: host or cells: HEK293
Sequence (Q6IQ55 whole entry): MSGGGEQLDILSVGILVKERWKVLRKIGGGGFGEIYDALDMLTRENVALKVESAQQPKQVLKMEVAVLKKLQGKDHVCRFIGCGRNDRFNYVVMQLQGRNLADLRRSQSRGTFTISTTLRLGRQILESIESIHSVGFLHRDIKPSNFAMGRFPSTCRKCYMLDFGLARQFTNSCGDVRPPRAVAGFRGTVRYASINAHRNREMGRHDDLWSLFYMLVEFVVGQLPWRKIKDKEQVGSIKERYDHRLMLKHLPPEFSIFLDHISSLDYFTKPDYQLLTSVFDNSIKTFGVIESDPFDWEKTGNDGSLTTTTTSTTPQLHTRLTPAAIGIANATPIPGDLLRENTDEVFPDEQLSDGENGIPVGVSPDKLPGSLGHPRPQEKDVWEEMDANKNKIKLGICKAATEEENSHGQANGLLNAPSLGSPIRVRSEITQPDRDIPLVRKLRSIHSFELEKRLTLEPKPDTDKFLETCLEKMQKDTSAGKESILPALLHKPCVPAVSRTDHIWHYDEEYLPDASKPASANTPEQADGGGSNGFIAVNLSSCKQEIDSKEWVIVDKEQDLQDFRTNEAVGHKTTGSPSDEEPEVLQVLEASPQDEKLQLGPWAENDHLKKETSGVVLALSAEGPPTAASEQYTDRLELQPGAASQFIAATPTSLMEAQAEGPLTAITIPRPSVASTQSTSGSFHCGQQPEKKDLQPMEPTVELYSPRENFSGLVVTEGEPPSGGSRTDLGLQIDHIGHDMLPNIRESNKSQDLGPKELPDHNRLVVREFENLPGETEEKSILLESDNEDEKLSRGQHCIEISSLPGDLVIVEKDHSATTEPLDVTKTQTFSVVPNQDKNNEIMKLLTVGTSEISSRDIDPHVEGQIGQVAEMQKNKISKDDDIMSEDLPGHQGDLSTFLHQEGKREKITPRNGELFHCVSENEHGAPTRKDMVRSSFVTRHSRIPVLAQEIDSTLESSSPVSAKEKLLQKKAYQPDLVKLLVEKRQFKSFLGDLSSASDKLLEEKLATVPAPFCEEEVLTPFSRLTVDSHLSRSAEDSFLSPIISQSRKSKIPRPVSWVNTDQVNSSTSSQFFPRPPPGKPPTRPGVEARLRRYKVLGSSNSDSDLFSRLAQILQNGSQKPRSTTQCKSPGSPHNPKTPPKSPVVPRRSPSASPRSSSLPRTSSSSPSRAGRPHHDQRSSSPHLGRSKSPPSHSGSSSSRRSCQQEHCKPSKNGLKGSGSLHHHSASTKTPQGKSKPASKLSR
Experiment: TTBK2 NanoBRET cellular target engagement assay in HEK293 cells
Assay type: cell-based
Conditions: tracer titration experiment, 2 μM tracer 29, n = 1; read-out: NL-TTBK2 IC50, tracer titration

[
  {
    "cpd.smiles": "CC(C)(O)C#Cc1ccc2[nH]cc(-c3ccnc(N)n3)c2c1",
    "IC50": "6.9 µM"
  }
]

====

Biological target: TSSK2 (Homo sapiens, UniProt Q96PF2)
Construct: purchased Eurofins (radiometric) / Eurofins DiscoverX scanMAX / Reaction Biology / SignalChem
Sequence (Q96PF2 whole entry): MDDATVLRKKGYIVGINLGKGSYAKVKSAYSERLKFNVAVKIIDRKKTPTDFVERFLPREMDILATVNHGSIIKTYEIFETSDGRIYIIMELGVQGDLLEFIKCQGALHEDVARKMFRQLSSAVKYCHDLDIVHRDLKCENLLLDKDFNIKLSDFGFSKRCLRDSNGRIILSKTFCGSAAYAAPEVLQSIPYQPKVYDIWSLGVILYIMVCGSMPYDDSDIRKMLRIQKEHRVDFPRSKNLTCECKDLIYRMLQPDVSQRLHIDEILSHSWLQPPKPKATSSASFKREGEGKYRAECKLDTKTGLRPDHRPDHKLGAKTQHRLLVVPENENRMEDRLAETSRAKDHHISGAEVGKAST
Assay: Eurofins enzymatic radiometric kinase assay
Assay type: biochemical
Conditions: ATP at Km, duplicate

[
  {
    "molecule": "CC(C)(O)C#Cc1ccc2[nH]c3c(c2c1)-c1nc(N)ncc1CCC3 [AMG28, reference compound]",
    "target.entity": "TSSK2 (Homo sapiens, UniProt Q96PF2)",
    "TSSK2 PoC at 1 μM [PoC]": 57
  },
  {
    "molecule": "COC(C)(C)C#Cc1ccc2[nH]c3c(c2c1)-c1nc(N)ncc1CCC3",
    "target.entity": "TSSK2 (Homo sapiens, UniProt Q96PF2)",
    "TSSK2 PoC at 1 μM [PoC]": 86
  },
  {
    "molecule": "CC(C)(O)C#Cc1ccc2[nH]c3c(c2c1)-c1nc(N)ncc1CCCC3",
    "target.entity": "TSSK2 (Homo sapiens, UniProt Q96PF2)",
    "TSSK2 PoC at 1 μM [PoC]": 76
  },
  {
    "molecule": "CC(C)(O)C#Cc1ccc2[nH]cc(-c3ccnc(N)n3)c2c1",
    "target.entity": "TSSK2 (Homo sapiens, UniProt Q96PF2)",
    "TSSK2 PoC at 1 μM [PoC]": 78
  },
  {
    "molecule": "CC(C)(O)C#Cc1ccc2[nH]c3c(c2c1)-c1nc(N)ncc1CC3",
    "target.entity": "TSSK2 (Homo sapiens, UniProt Q96PF2)",
    "TSSK2 PoC at 1 μM [PoC]": 88
  }
]
